biological target: estrogen receptor (Homo sapiens); construct: expressed in transfected cells; host or cells: HEK293 (Gibco 293-H), transient transfection with FuGENE HD; experiment: NanoBRET screening of ARCS (binding assay with washout) in transfected HEK293 cells; details: HEK293 cells transfected with NanoLuc-target fusion, estrogen receptor
Sequence (P03372 whole entry, species assumed, the tested form may be a part): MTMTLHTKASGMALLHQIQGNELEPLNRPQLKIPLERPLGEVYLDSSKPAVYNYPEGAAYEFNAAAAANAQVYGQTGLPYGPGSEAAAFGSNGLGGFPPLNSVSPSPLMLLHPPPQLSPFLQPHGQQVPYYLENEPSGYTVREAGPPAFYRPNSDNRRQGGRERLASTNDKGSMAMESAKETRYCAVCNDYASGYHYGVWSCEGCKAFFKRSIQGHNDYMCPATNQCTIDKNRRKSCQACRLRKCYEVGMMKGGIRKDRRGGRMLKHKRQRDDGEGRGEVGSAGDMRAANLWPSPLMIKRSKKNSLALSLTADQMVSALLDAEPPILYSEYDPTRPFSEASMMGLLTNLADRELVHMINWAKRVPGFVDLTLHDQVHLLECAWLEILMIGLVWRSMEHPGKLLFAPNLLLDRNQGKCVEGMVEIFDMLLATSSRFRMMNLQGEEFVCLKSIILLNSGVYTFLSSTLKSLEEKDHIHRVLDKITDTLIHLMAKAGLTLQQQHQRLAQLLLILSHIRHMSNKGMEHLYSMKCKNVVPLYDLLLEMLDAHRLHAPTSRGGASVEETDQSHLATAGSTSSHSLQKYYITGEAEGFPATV
experimental.endpoint: Binding Potential (Percent inhibition)

Use the examples below as a reference point.
{"compound": "C=CC(=O)NCCc1cc(F)c(C2c3[nH]c4ccccc4c3CC(C)N2CC(C)(C)F)c(F)n1 (stereo not shown)", "Binding Potential (Percent inhibition)": "++++ (++++ >90%)"}
{"compound": "CC1Cc2c([nH]c3ccccc23)C(c2c(F)cc(OCCNCC=CC(=O)N(C)C)cc2F)N1CC(C)(C)F (stereo not shown)", "Binding Potential (Percent inhibition)": "++++ (++++ >90%)"}
{"compound": "CC#CC(=O)NCCc1cc(F)c(C2c3[nH]c4ccccc4c3CC(C)N2CC(C)(C)F)c(F)n1 (stereo not shown)", "Binding Potential (Percent inhibition)": "++++ (++++ >90%)"}
{"compound": "CC1Cc2c([nH]c3ccccc23)C(c2ccc(C=CCNCC=CC(=O)N(C)C)nc2)N1CC(C)(C)F (stereo not shown)", "Binding Potential (Percent inhibition)": "++ (++ 50-70%)"}

# input Record request: Binding Potential (Percent inhibition) value, item CC1Cc2c([nH]c3ccccc23)C(c2ccc(OCCNCC=CC(=O)N(C)C)nc2)N1CC(C)(C)F (stereo not shown)
# output ++++ (++++ >90%)

# input Note, next up: CC1Cc2c([nH]c3ccccc23)C(c2c(F)cc(C=CCNCC=CC(=O)N(C)C)cc2F)N1CC(C)(C)F (stereo not shown)
# output ++ (++ 50-70%)
